B1: C2CD2L (parent)
chain: LTLKVLRSSSCGDTELLGQATLPV

# Variants of: B1
# PROCEDURE_DETAILS: protein stability index of a GFP-peptide fusion (GPS, HEK-293T) (PSI 1-6); higher = more stable;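 note: lentivirally expressed fusions sorted by FACS into six bins by GFP to DsRed ratio, PSI derived from sequencing read proportions per bin multiplied by bin number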
# EXPERIMENTAL_CONTEXT: c terminus: a fixed tail appended
In this section we review reported protein stability index values for a set of variants.
Respond numerically, and do not add a unit to the figure.

Noted for `G18V` : its protein stability index reads 2.88
